pEC50 values, listed per item
system: SARS-CoV-2; test: microbe, parasite or virus in culture; conditions: Severe acute respiratory syndrome coronavirus 2, Vero, 72 h
pEC50: −log10 of the molar value.
measured_endpoint: pEC50

INSERT INTO measurements (smiles_text, measured_endpoint, result) VALUES
  ('O=C(NCc1ccccc1C(F)(F)F)C(=O)[C@H](C[C@@H]1CCNC1=O)NC(=O)[C@@H]1CCCN1C(=O)COc1ccc(Cl)cc1Cl', 'pEC50', '< 4.00'),
  ('COc1ccc(CNC(=O)C(=O)[C@H](C[C@@H]2CCNC2=O)NC(=O)[C@@H]2CCCN2C(=O)COc2ccc(Cl)cc2Cl)c(OC)c1', 'pEC50', '< 4.00');
